Molecular target: T1, recombinant human IL-6 (human, UniProt P05231 30-212)
T1 construct: Bought protein
T1 sequence (P05231 30-212 limits assumed): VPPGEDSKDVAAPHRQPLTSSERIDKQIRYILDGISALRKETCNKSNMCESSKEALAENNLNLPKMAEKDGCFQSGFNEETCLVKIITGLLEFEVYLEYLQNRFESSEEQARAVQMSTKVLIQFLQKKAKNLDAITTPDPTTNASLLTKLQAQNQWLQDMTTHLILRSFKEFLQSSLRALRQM
Test: SPR Biacore, purified Ab on Protein A chip, IL-6 analyte, 37 C
property: kon (M⁻¹ s⁻¹)
Number in M⁻¹ s⁻¹, nothing else.

Some binders with known kon results, for comparison:
binder	observed_value
anti-IL-6 antibody, light chain T96L (heavy chain WT) (antibody, V domains shown, See note of m2; also called WT / T96L) VH: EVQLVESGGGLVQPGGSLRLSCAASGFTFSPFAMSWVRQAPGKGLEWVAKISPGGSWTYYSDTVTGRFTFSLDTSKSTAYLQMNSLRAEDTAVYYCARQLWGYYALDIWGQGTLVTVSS VL: DIQLTQSPSSLSASVGDRVTITCSASISVSYMYWYQQKPGKAPKLLIYDMSNLASGVPSRFSGSGSGTDFTLTISSLQPEDFATYYCMQWSGYPYLFGQGTKVEIK	882000
anti-IL-6 antibody, light chain M32L (heavy chain WT) (antibody, V domains shown, See note of m2; also called WT / M32L) VH: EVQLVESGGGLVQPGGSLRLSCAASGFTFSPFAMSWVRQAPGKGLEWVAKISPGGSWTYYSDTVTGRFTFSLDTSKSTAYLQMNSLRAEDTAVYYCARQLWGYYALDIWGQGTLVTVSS VL: DIQLTQSPSSLSASVGDRVTITCSASISVSYLYWYQQKPGKAPKLLIYDMSNLASGVPSRFSGSGSGTDFTLTISSLQPEDFATYYCMQWSGYPYTFGQGTKVEIK	885000

Consider the record given below.
Item under review: anti-IL-6 antibody, light chain M88A (heavy chain WT) (antibody, V domains shown, See note of m2; also called WT / M88A) VH: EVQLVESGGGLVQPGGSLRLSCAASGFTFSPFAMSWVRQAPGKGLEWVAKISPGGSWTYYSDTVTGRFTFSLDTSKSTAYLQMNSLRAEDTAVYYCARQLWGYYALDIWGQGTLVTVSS VL: DIQLTQSPSSLSASVGDRVTITCSASISVSYMYWYQQKPGKAPKLLIYDMSNLASGVPSRFSGSGSGTDFTLTISSLQPEDFATYYCAQWSGYPYTFGQGTKVEIK . Reported kon?
586000
